# System: HepG2
# METHOD: cell viability relative to DMSO; higher = less toxic
# CONDITION CONTEXT: 72 h; 100 nM
MEASUREMENT KIND: cell viability (%)
The reply should be a number in %, with the unit left off.

Exam item: For HepG2, provide cell viability of "C[C@H](Nc1cc2c(-c3ccc4c(c3)OCO4)noc2cn1)c1ccccc1" please.
Marked response: 100

Exam item: For HepG2, provide cell viability of "CCOc1c2c(c(OCC)c3ccccc13)C(=O)N(c1ccc(CC(=O)NS(=O)(=O)c3ccccc3)cc1)C2" please.
Marked response: 104

Exam item: For HepG2, provide cell viability of "COc1cc(/C=C2\CCC/C(=C\c3ccc(O)c(OC)c3)C2=O)ccc1O" please.
Marked response: 99

Exam item: For HepG2, provide cell viability of "OCCc1ccc(OCCn2ccnc2)cc1" please.
Marked response: 96.7

Exam item: For HepG2, provide cell viability of "CC(C)(N)c1cc(C(=O)N[C@@H]2CCc3ccc(Oc4ccnc5c4CCC(=O)N5)cc3C2)cc(C(F)(F)F)c1" please.
Marked response: 62.4

Exam item: For HepG2, provide cell viability of "NCCNc1ccc(NCCN)c2c1C(=O)c1ccncc1C2=O" please.
Marked response: 98.9

Exam item: For HepG2, provide cell viability of "C=CC(=O)Nc1cc(Nc2nccc(-c3c[nH]c4ccccc34)n2)c(OC)cc1N(C)CCN(C)C" please.
Marked response: 84.2

Exam item: For HepG2, provide cell viability of "CC(C)C[C@H](NC(=O)[C@H](CCCCN)NC(=O)[C@H](CCCNC(=N)N)NC(=O)[C@H](C)NC(=O)[C@H](CO)NC(=O)[C@H](CCCCN)NC(=O)[C@H](CCCNC(=N)N)NC(=O)[C@H](C)NC(=O)CNC(=O)[C@@H](NC(=O)[C@H](Cc1ccccc1)NC(=O)CNC(=O)CNC(=O)[C@@H](N)Cc1ccccc1)[C@@H](C)O)C(=O)N[C@@H](C)C(=O)N[C@@H](CC(N)=O)C(=O)N[C@@H](CCC(N)=O)C(=O)O" please.
Marked response: 94.5

Exam item: For HepG2, provide cell viability of "COC1=C[C@@H]2[C@@H]3Cc4ccc(OC)c(O)c4[C@]2(CCN3C)CC1=O" please.
Marked response: 99.2

Exam item: For HepG2, provide cell viability of "O=C(c1ccc(F)cc1)N1CCC[C@H](c2nc(-c3ccc(F)cc3)no2)C1" please.
Marked response: 93

Exam item: For HepG2, provide cell viability of "Cc1noc(C)c1-c1ccc(-c2cc(C(N)=O)c(NC(N)=O)s2)c(O[C@H]2CCNC2)c1" please.
Marked response: 99.8

Exam item: For HepG2, provide cell viability of C[N+]1([O-])[C@@H]2C[C@@H](OC(=O)[C@H](CO)c3ccccc3)C[C@H]1[C@@H]1O[C@@H]12 (some centres undefined) [scopolamine-N-oxide] please.
Marked response: 107

Exam item: For HepG2, provide cell viability of CCCCCCCCC(=O)NCc1cc(OC)c(O)cc1I [6-iodo-nordihydrocapsaicin] please.
Marked response: 95.6

Exam item: For HepG2, provide cell viability of "C[N+]1(C)CCC(OC(=O)C(c2ccccc2)c2ccccc2)CC1" please.
Marked response: 103

Exam item: For HepG2, provide cell viability of "CC/C=C\C/C=C\C/C=C\C/C=C\C/C=C\C/C=C\CCC(=O)OCC" please.
Marked response: 87.1

Exam item: For HepG2, provide cell viability of "O=C1c2cccc(O)c2C(=O)c2c(O)cc(CO)cc21" please.
Marked response: 90.6

Exam item: For HepG2, provide cell viability of COc1c(N2CCNC(C)C2)c(F)cc2c(=O)c(C(=O)O)cn(C3CC3)c12 (centres undefined) please.
Marked response: 95.9

Exam item: For HepG2, provide cell viability of "Cc1c(Cc2ccc3ccccc3n2)c2cc(F)ccc2n1CC(=O)O" please.
Marked response: 109

Exam item: For HepG2, provide cell viability of CCNC(C)CN1CCc2c(c(=O)oc3ccccc23)C1 (centres undefined) please.
Marked response: 105

Exam item: For HepG2, provide cell viability of Cc1cccc(C)c1NC(=O)C1CCCCN1C (centres undefined) [mepivacaine] please.
Marked response: 105

Exam item: For HepG2, provide cell viability of "CN1CCN(c2cccc(Nc3nc4c(-c5ccc(S(C)(=O)=O)cc5)cccn4n3)c2)CC1" please.
Marked response: 94.1

Exam item: For HepG2, provide cell viability of "COc1cccc([C@@H](C)NCCCc2ccccc2Cl)c1" please.
Marked response: 101

Exam item: For HepG2, provide cell viability of C[C@H](NCc1ccc(OCc2ccccc2F)cc1)C(N)=O [priralfinamide] please.
Marked response: 98.5

Exam item: For HepG2, provide cell viability of "CC(C)(C)c1ccc(C(=O)Nc2cn3cc(-n4ccnc4)ccc3n2)cc1" please.
Marked response: 98.4

Exam item: For HepG2, provide cell viability of O=C(O)CC(S)C(=O)O (centres undefined) please.
Marked response: 94.9

Exam item: For HepG2, provide cell viability of "c1ccc(CN2CCC3(CCc4ccccc43)CC2)cc1" please.
Marked response: 91.9

Exam item: For HepG2, provide cell viability of "CS(=O)(=O)CCNCc1nc(-c2ccc3ncnc(Nc4ccc(OCc5cccc(F)c5)c(Cl)c4)c3c2)cs1" please.
Marked response: 93.5

Exam item: For HepG2, provide cell viability of "CC(C)(C)C(=O)OCOC(=O)[C@@H]1N2C(=O)[C@@H](/N=C/N3CCCCCC3)[C@H]2SC1(C)C" please.
Marked response: 96.1

Exam item: For HepG2, provide cell viability of "CCn1c2ccccc2c2cc(CNCc3ccccc3OC)ccc21" please.
Marked response: 93.5

Exam item: For HepG2, provide cell viability of "CCCCCCCCCCC[C@@H](C[C@@H]1OC(=O)[C@H]1CCCCCC)OC(=O)[C@H](CC(C)C)NC=O" please.
Marked response: 108

Exam item: For HepG2, provide cell viability of CC1(C)OC2(C)C(O)CC1CC2O (centres undefined) please.
Marked response: 96.2

Exam item: For HepG2, provide cell viability of "CC[N+](CC)(CC)CC(=O)Nc1c(C)cccc1C" please.
Marked response: 92.6

Exam item: For HepG2, provide cell viability of "CC1(C)Oc2ccc(C#N)cc2[C@@H](N2CCCC2=O)[C@@H]1O" please.
Marked response: 98

Exam item: For HepG2, provide cell viability of CN1CCN(C(=O)C2C(C(=O)O)[C@H]3CC[C@@H]2O3)CC1 (some centres undefined) please.
Marked response: 109

Origin of values: the supplement of paper PMC13380429
